Cited source for all entries: paper PMC7917821

Each item that follows carries a reported pIC50.
Target protein (sequence): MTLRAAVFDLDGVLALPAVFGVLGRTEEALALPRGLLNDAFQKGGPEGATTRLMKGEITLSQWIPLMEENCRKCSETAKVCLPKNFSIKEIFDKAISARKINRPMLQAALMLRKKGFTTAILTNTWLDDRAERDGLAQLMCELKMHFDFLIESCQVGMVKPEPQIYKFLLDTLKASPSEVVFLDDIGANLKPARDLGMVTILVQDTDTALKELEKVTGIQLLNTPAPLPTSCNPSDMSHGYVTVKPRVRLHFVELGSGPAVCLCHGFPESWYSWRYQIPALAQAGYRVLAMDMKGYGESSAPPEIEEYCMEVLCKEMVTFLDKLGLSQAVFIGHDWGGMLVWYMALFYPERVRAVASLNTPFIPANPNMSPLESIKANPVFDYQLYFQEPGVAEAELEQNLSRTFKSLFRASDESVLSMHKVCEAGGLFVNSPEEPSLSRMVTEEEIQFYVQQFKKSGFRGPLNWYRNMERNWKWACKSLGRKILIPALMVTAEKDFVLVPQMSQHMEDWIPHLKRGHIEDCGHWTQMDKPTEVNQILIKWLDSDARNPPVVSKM
pIC50 is defined as minus the log10 of a concentration measured in mol/L.

Some solved entries appear below for comparison.
{"COMPOUND": "C=C(C)[C@@H]1CC[C@]2(C(=O)O)CC[C@]3(C)[C@H](CC[C@@H]4[C@@]5(C)CC[C@H](O)C(C)(C)[C@@H]5CC[C@]43C)[C@@H]12", "pIC50": 4.17}
{"COMPOUND": "COC(=O)[C@@H](Cc1ccc(O)c(O)c1)OC(=O)/C=C/c1ccc(O)c2c1[C@H](C(=O)OC)[C@@H](c1ccc(O)c(O)c1)O2 [Compound 9, dimethyl lithospermate]", "pIC50": 4.97}
{"COMPOUND": "COc1ccc(CCO[C@@H]2O[C@H](CO)[C@@H](OC(=O)/C=C/c3ccc(O)c(OC)c3)[C@H](O[C@@H]3O[C@@H](C)[C@H](O)[C@@H](O)[C@H]3O)[C@H]2O)cc1O [Compound 8, martynoside]", "pIC50": 4.71}
{"COMPOUND": "COC(=O)[C@H]1c2c(/C=C/C(=O)O[C@H](Cc3ccc(O)c(O)c3)C(=O)O)ccc(O)c2O[C@@H]1c1ccc(O)c(O)c1 [Compound 10, 9″″-methyl lithospermate]", "pIC50": 4.45}
{"COMPOUND": "C[C@H]1[C@H](C)CC[C@]2(C(=O)O)CC[C@]3(C)C(=CC[C@@H]4[C@@]5(C)CC[C@H](O)C(C)(C)[C@@H]5CC[C@]43C)[C@H]12", "pIC50": 4.38}

Recorded pIC50 for COC(=O)[C@@H](Cc1ccc(O)c(O)c1)OC(=O)/C=C/c1ccc(O)c(O)c1 [Compound 7, methyl rosmarinate] , please?
4.77

----------
- SYSTEM_NAME: sEH (Homo sapiens, UniProt P34913)
- Construct: purchased Cayman 10011669
- ASSAY_SUMMARY: Enzyme kinetics on sEH (Lineweaver–Burk and Dixon plots)
- Format: biochemical
- MEASUREMENT_CONTEXT: Lineweaver–Burk plots, various substrate concentrations

{"COMPOUND": "COC(=O)[C@H]1c2c(/C=C/C(=O)O[C@H](Cc3ccc(O)c(O)c3)C(=O)O)ccc(O)c2O[C@@H]1c1ccc(O)c(O)c1 [Compound 10, 9″″-methyl lithospermate]", "SYSTEM_NAME": "sEH (Homo sapiens, UniProt P34913)", "sEH inhibition Type": "competitive inhibitors"}
{"COMPOUND": "COC(=O)[C@@H](Cc1ccc(O)c(O)c1)OC(=O)/C=C/c1ccc(O)c(O)c1 [Compound 7, methyl rosmarinate]", "SYSTEM_NAME": "sEH (Homo sapiens, UniProt P34913)", "sEH inhibition Type": "competitive inhibitors"}
{"COMPOUND": "COC(=O)[C@@H](Cc1ccc(O)c(O)c1)OC(=O)/C=C/c1ccc(O)c2c1[C@H](C(=O)OC)[C@@H](c1ccc(O)c(O)c1)O2 [Compound 9, dimethyl lithospermate]", "SYSTEM_NAME": "sEH (Homo sapiens, UniProt P34913)", "sEH inhibition Type": "competitive inhibitors"}

----------
- SYSTEM_NAME: sEH (Homo sapiens, UniProt P34913)
ENDPOINT_NAME: Ki (µM)
The answer is to be given in µM; state only the numeric part.

Some solved entries appear below for comparison.
{"COMPOUND": "COC(=O)[C@@H](Cc1ccc(O)c(O)c1)OC(=O)/C=C/c1ccc(O)c(O)c1 [Compound 7, methyl rosmarinate]", "Ki, µM": 9.2}
{"COMPOUND": "COc1ccc(CCO[C@@H]2O[C@H](CO)[C@@H](OC(=O)/C=C/c3ccc(O)c(OC)c3)[C@H](O[C@@H]3O[C@@H](C)[C@H](O)[C@@H](O)[C@H]3O)[C@H]2O)cc1O [Compound 8, martynoside]", "Ki, µM": 5.7}
{"COMPOUND": "COC(=O)[C@H]1c2c(/C=C/C(=O)O[C@H](Cc3ccc(O)c(O)c3)C(=O)O)ccc(O)c2O[C@@H]1c1ccc(O)c(O)c1 [Compound 10, 9″″-methyl lithospermate]", "Ki, µM": 7.6}

From here, focus on the item given below.
Recorded Ki for COC(=O)[C@@H](Cc1ccc(O)c(O)c1)OC(=O)/C=C/c1ccc(O)c2c1[C@H](C(=O)OC)[C@@H](c1ccc(O)c(O)c1)O2 [Compound 9, dimethyl lithospermate] , please?
1.9
